Just for reference, patent US12590099B2 is where these values come from.

- measured_on: Recombinant human HDAC8 (Homo sapiens, UniProt Q9BY41)
- Construct: purchased Enzo Life Sciences BML-SE145-0100
- Sequence (Q9BY41 whole entry): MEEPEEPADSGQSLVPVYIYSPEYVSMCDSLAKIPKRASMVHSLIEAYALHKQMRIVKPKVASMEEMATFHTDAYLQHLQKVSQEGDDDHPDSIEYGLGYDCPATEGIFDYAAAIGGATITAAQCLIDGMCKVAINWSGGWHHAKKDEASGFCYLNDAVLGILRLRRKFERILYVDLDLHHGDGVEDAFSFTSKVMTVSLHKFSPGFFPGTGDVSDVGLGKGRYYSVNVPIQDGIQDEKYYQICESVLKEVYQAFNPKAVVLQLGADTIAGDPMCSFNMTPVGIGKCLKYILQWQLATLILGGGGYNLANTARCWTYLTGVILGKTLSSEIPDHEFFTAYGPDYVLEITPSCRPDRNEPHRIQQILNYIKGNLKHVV
- assay_explanation: Human HDAC enzyme inhibitor Fluor-de-Lys assay, HDAC8
- Assay type: biochemical
- condition_description: recombinant human HDAC8, Fluor-de-Lys assay

compound	measured_on	IC50
CCC(=O)CCCCC[C@H](NC(=O)C1=NOC2(CCN(C)CC2)C1)c1ncc(-c2cc3ccc(C)nc3cc2F)[nH]1	Recombinant human HDAC8 (Homo sapiens, UniProt Q9BY41)	> 0.9 µM
CCC(=O)CCCCC[C@H](NC(=O)C1=NOC2(CCN(C(=O)OC)CC2)C1)c1ncc(-c2ccccc2)[nH]1	Recombinant human HDAC8 (Homo sapiens, UniProt Q9BY41)	7.47 µM
CCC(=O)CCCCC[C@H](NC(=O)C1=NOC2(CCN(CC3CC3)CC2)C1)c1ncc(-c2cc3ccc(=O)n(C)c3cc2F)o1	Recombinant human HDAC8 (Homo sapiens, UniProt Q9BY41)	> 0.9 µM
CCC(=O)CCCCC[C@H](NC(=O)C1NC(=O)CC12CNC2)c1nnc(-c2cc3ccccc3nc2OC)o1 (stereo partly shown)	Recombinant human HDAC8 (Homo sapiens, UniProt Q9BY41)	20.8 µM
CCC(=O)CCCCC[C@H](NC(=O)C1=NOC2(CCN(C)CC2)C1)c1ncc(-c2ccc(-c3ccncc3)cc2OC)o1	Recombinant human HDAC8 (Homo sapiens, UniProt Q9BY41)	> 0.9 µM
CCC(=O)CCCCC[C@H](NC(=O)[C@H]1CC[C@]2(CC1)OC(=O)c1ncccc12)c1ncc(-c2ccccc2)[nH]1	Recombinant human HDAC8 (Homo sapiens, UniProt Q9BY41)	3.01 µM
CCC(=O)CCCCC[C@H](NC(=O)C1=NOC2(CCN(S(C)(=O)=O)CC2)C1)c1nnc(-c2cc3ccccc3nc2OC)o1	Recombinant human HDAC8 (Homo sapiens, UniProt Q9BY41)	> 45 µM

====

- measured_on: Recombinant human HDAC1 (Homo sapiens, UniProt Q13547)
- Construct: FLAG (C); made in house
- Sequence (Q13547 whole entry): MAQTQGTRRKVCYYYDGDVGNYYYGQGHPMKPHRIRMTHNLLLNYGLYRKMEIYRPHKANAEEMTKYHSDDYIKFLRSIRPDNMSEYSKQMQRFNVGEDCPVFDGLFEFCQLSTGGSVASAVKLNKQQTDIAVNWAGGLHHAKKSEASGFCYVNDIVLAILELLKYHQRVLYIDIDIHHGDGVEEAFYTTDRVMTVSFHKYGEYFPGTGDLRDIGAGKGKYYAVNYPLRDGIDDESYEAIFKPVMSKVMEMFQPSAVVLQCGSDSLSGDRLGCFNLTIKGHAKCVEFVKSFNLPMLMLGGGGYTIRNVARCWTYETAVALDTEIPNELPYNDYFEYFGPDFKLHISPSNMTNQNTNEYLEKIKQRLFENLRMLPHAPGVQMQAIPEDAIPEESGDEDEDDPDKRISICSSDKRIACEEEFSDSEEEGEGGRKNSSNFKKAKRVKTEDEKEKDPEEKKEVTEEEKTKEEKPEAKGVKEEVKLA
- assay_explanation: Human HDAC enzyme inhibitor Fluor-de-Lys assay, HDAC1
- Type: biochemical
Entries and their IC50
measured_parameter: IC50 (nM)

molecule	measured_on	units	operator_symbol	recorded_result
CCC(=O)CCCCC[C@H](N)c1ncc(-c2cc3ccc(C)nc3cc2OC)[nH]1	Recombinant human HDAC1 (Homo sapiens, UniProt Q13547)	nM	=	52.9
CCC(=O)CCCCC[C@H](NC(=O)C1CCC2(CC1)CN(C)C2)c1ncc(-c2ccc3nn(C)cc3c2)[nH]1	Recombinant human HDAC1 (Homo sapiens, UniProt Q13547)	nM	=	5.03
CCC(=O)CCCCC[C@H](NC(=O)[C@H]1CC12CCN(CC)CC2)c1ncc(-c2ccc3c(=O)n(C4CC4)ccc3c2)[nH]1	Recombinant human HDAC1 (Homo sapiens, UniProt Q13547)	nM	=	0.19
CCC(=O)CCCCC[C@H](NC(=O)[C@H]1CC[C@]2(CC1)OC(=O)c1ncccc12)c1ncc(-c2ccc3nc(C4CC4)ccc3c2)o1	Recombinant human HDAC1 (Homo sapiens, UniProt Q13547)	nM	=	56.7
CCC(=O)CCCCC[C@H](NC(=O)[C@H]1CC12CCN(C(C)C)CC2)c1ncc(-c2ccc3nc(C4CC4)ccc3c2)[nH]1	Recombinant human HDAC1 (Homo sapiens, UniProt Q13547)	nM	<	1.5
CCC(=O)CCCCC[C@H](NC(=O)[C@H]1CC[C@]2(CC1)OC(=O)c1cccnc12)c1ncc(-c2ccc3nc(C4CC4)ccc3c2)o1	Recombinant human HDAC1 (Homo sapiens, UniProt Q13547)	nM	=	34.8
CCC(=O)CCCCC[C@H](NC(=O)[C@H]1CC12CCN(CC)CC2)c1ncc(-c2ccc3nc(C4CC4)ccc3c2)[nH]1	Recombinant human HDAC1 (Homo sapiens, UniProt Q13547)	nM	<	1.5
CCC(=O)CCCCC[C@H](NC(=O)[C@H]1CC12CCN(C)CC2)c1ncc(-c2ccc3nc(C4CC4)sc3c2)[nH]1	Recombinant human HDAC1 (Homo sapiens, UniProt Q13547)	nM	=	1.06
CCC(=O)CCCCC[C@H](NC(=O)C1CC12CCN(C)C(C)(C)C2)c1ncc(-c2ccc3nc(C)ccc3c2)[nH]1 (single isomer, unassigned) [Compound 131]	Recombinant human HDAC1 (Homo sapiens, UniProt Q13547)	nM	=	0.48
CCC(=O)CCCCC[C@H](NC(=O)[C@H]1CC[C@]2(CC1)OC(=O)c1ncccc12)c1ncc(-c2cc3ccccc3nc2OC)[nH]1	Recombinant human HDAC1 (Homo sapiens, UniProt Q13547)	nM	=	12.2
COc1cc2nc(C)ccc2cc1-c1cnc([C@H](CCCCCC(=O)CC2CCC2)NC(=O)[C@H]2CC23CCN(C)CC3)o1	Recombinant human HDAC1 (Homo sapiens, UniProt Q13547)	nM	=	15.1
CCC(=O)CCCCC[C@H](NC(=O)[C@H]1CC12CCN(C)CC2)c1ncc(-c2cc3ccccc3nc2OC)o1 [Compound 77]	Recombinant human HDAC1 (Homo sapiens, UniProt Q13547)	nM	=	1.53
CCC(=O)CCCCC[C@H](NC(=O)[C@H]1CC12CCN(C)CC2)c1ncc(-c2ccc3nc(C)cc(Cl)c3c2)[nH]1	Recombinant human HDAC1 (Homo sapiens, UniProt Q13547)	nM	=	0.55

====

- measured_on: Recombinant human HDAC2 (Homo sapiens, UniProt Q92769)
- Construct: Full length human HDAC2-FLAG was expressed in baculovirus infected Sf9 cells; FLAG (C); made in house; host or cells: Sf9 (baculovirus)
- Sequence (Q92769 whole entry): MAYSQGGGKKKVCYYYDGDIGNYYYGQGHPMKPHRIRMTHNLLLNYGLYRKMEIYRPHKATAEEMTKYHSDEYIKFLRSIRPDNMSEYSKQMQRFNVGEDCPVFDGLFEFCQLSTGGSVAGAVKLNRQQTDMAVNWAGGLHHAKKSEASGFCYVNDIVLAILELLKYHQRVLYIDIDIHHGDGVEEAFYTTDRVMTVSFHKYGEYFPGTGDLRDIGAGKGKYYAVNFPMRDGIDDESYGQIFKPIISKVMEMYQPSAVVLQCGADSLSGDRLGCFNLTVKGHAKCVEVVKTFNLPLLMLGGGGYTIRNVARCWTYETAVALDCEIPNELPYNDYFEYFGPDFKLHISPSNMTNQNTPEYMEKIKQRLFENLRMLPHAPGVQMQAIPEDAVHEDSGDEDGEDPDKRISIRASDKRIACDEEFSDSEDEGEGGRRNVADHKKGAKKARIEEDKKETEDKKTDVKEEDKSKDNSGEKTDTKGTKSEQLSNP
- assay_explanation: Human HDAC enzyme inhibitor Fluor-de-Lys assay, HDAC2
- Assay type: biochemical
- condition_description: recombinant human HDAC2, Fluor-de-Lys assay
pIC50: −log10 of the molar value.

compound	operator_symbol	pIC50
CCC(=O)CCCCC[C@H](NC(=O)CC1CC2(C1)CN(C(C)=O)C2)c1ncc(-c2ccccc2)[nH]1	=	6.10
CCC(=O)CCCCC[C@H](NC(=O)[C@H]1CC12CCN(C)CC2)c1ncc(-c2ccc(C)nc2OC)[nH]1	=	7.76
CCC(=O)CCCCC[C@H](NC(=O)C1=NOC2(CCN(C)CC2)C1)c1ncc(-c2ccc(-c3ccccn3)cc2OC)o1	=	7.13
CCC(=O)CCCCC[C@H](NCC1CC1)c1ncc(-c2cc3ccc(C)nc3cc2OC)[nH]1	=	6.09
CCC(=O)CCCCC[C@H](NC(=O)[C@H]1CC[C@]2(CC1)OC(=O)c1ncccc12)c1ncc(-c2ccccc2)[nH]1	=	6.63
CCC(=O)CCCCC[C@H](NC(=O)[C@H]1CC[C@@]2(CC1)OC(=O)c1cccnc12)c1nnc(-c2cc3ccccc3nc2OC)o1	=	6.49
CCC(=O)CCCCCC(N)(COC)c1ncc(-c2cc3ccc(C)nc3cc2OC)[nH]1 (stereo not drawn)	<	6.05
CCC(=O)CCCCC[C@H](NC(=O)[C@H]1CC12CCN(CC1CC1)CC2)c1ncc(-c2cc3ccc(=O)n(C)c3cc2F)o1	=	7.40
CCC(=O)CCCCC[C@H](NC(=O)C1=NOC2(CCN(CC)CC2)C1)c1ncc(-c2cc3ccc(C)nc3cc2F)[nH]1	=	7.60
CCC(=O)CCCCC[C@H](NC(=O)C1=NOC2(CCN(C)CC2)C1)c1ncc(-c2cc3ccc(=O)n(C)c3cc2F)o1	=	7.26
CCC(=O)CCCCC[C@H](NC(=O)[C@H]1CC[C@@]2(CC1)OC(=O)c1cccnc12)c1ncc(-c2ccccc2)[nH]1	=	6.32
CCC(=O)CCCCC[C@H](NC(=O)C1=NOC2(CCN(CC)CC2)C1)c1ncc(-c2cc3ccc(C)nc3cc2F)o1	=	7.44
CCC(=O)CCCCC[C@H](NC(=O)[C@H]1CC12CCN(C)CC2)c1[nH]c(-c2ccc(F)cc2)nc1Cl	=	7.42
CCC(=O)CCCCC[C@H](NC(=O)[C@H]1CC12CCN(C)CC2)c1ncc(-c2cnc(OC)nc2)[nH]1	=	6.31
CCC(=O)CCCCC[C@H](NC(=O)C1=NOC2(CCN(C)CC2)C1)c1ncc(-c2ccccc2)[nH]1	=	6.84
CCC(=O)CCCCC[C@H](NC(=O)[C@H]1CC12CCN(CC1CC1)CC2)c1ncc(-c2cc3ccn(C)c(=O)c3cc2OC)o1	=	9.15
CCC(=O)CCCCC[C@H](NC(=O)C1=NOC2(CCN(C)CC2)C1)c1ncc(-c2ccc(-c3cccnc3)cc2OC)o1	=	7.61
CCC(=O)CCCCC[C@H](NC(=O)[C@H]1CC12CCN(C)CC2)c1ncc(-c2ccn3ncnc3c2)[nH]1	=	6.77
CCC(=O)CCCCC[C@H](NC(=O)[C@H]1CC[C@]2(CC1)OC(=O)c1cccnc12)c1ncc(-c2ccccc2)[nH]1	=	6.66
CCC(=O)CCCCC[C@H](NCC1CN(C)C1)c1ncc(-c2cc3ccc(C)nc3cc2OC)o1	=	6.75
CCC(=O)CCCCC[C@H](NC(=O)[C@H]1CC12CCN(C)CC2)c1ncc(-c2cnc(-n3cc(C)cn3)nc2)[nH]1	=	6.73
CCCn1cc(-c2[nH]c(-c3ccc(F)cc3)nc2C(CCCCCC(=O)CC)NC(=O)C2CC23CCN(CC)CC3)cn1 (stereo not drawn)	=	6.88
CCC(=O)CCCCC[C@H](NC(=O)[C@H]1CC[C@@]2(CC1)OC(=O)c1ncccc12)c1ncc(-c2ccccc2)[nH]1	=	6.37
CCC(=O)CCCCC[C@@H](NC(=O)C1CCC2(CC1)CNC2)c1ncc(-c2ccccc2)[nH]1	=	6.84
CCC(=O)CCCCC[C@H](NC(=O)C1CC12CCOCC2)c1ncc(-c2cc3ccc(C)nc3cc2OC)o1 (single isomer, unassigned) [Compound 409]	=	7.00
CCC(=O)CCCCC[C@H](NC(=O)CC1CC2(C1)CN(C)C2)c1ncc(-c2cc3ccccc3nc2OC)[nH]1	=	8.29
CCC(=O)CCCCC[C@H](NC(=O)C1=NOC2(CCN(CC3CC3)CC2)C1)c1ncc(-c2cc3ccc(=O)n(C)c3cc2OC)o1	=	8.00
